# Assay notes: Specific activity of purified CHI, absorbance decrease at 384 nm, homoeriodictyol chalcone; note: unit not given here
# Assay type: biochemical
# Stated conditions: purified CHI in 50 mM PBS, 100 μM substrate, 25° C.
Quantity kind: Specific activity, Homoeriodctiol chalcone
Lab note: jot down the number only; don't add units.

Can you look up the measured Specific activity, Homoeriodctiol chalcone of CHIera Mut5: Chalcone isomerase variant 5 from Eubacterium ramulus, genetically engineered (protein, listed as Eubacterium ramulus) MADFKFEPMRSLIYVDCVSEDYRPKLQRWIYKVHIPDSISKFEPYVTKYAFYPSFPIPPQGDRFGYARMQLTEHHWLVSPLDPRLEINAIAETFPMDVLVWQGQIPAAAHTDAQIDSDGDAGRAAKKSNNAEGNPFIFAFLPMWWEKDLKGKGRTIEDGANYRFNMTIGFPEGVDKAEGEKWLFEKVVPILQAAPECTRVLASAVKKDINGCVMDWVLEIWFENQSGWYKVMVDDMKALEKPSWAQQDAFPFLKPYHNVCSAAVADYTPSNNLANYRGYITMR for me?
8.8
